assay: 5' untranslated region of α-synuclein, MLPCN primary screen (AID 1813); details: alpha-synuclein 5'UTR reporter, inhibitor activity; hits give high values; tested at 7.5 µM;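 note: H4 neuroglioblastoma cells stably carrying SNCA 5'UTR luciferase fusion; 0% = DMSO wells and 100% = positive control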
Screen size: about 300,000 compounds; about 2,500 (0.83%) were called active. What follows is part of a selection rich in actives, with near analogues and random picks from the rest.
Quick reference: inhibition of the listed items.
Numeric only. Scale: %

molecule | inhibition / %
C/C(=N\NC(=O)Cc1ccc(Cl)cc1)c1ccccn1 | 85.6
CN(CC(=O)NNC(=O)CNC(=O)c1ccccc1Cl)S(=O)(=O)c1ccc(Cl)cc1 | -12.7
Cc1nnc(N/N=C/C2CC=CCC2)[nH]c1=O (stereo unspecified) | -14.7
CCN(CC)c1ccc(/C=N/NC(=O)CNC(=O)c2cccnc2)cc1 | 5.51
CN1c2ccc(C=O)c3c(C=O)ccc(c23)N(C)C1(C)C | 67

Prompt: Would you kindly share the measured inhibition for O=C(CNC(=O)Cc1ccccc1)NCC(=O)OCC(=O)c1ccccc1Cl ?
Completion: -27.1

Prompt: And CCOC(=O)C(C)n1cnc2c(nnn2-c2cccc(OC)c2)c1=O (stereo unspecified) ?
Completion: -35.8

Prompt: And CCCCOc1ccc(C(=O)NN2CCN(C)CC2)cc1 ?
Completion: 1.5

Prompt: And C=CCNC(=O)/C=C/c1ccc(C(C)C)cc1 ?
Completion: -129
